Assignment: determine reported koff for the given binders.
test.system: T1, extracellular domain of rhesus monkey BCMA (rhesus monkey, UniProt F7FFA0 1-53)
T1 construct: extracellular domain; also called RhBCMA
T1 sequence (F7FFA0 entry or part of it): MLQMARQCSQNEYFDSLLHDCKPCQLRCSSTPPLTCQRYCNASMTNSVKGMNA
test.description: Octet BLI; Fab 200 nM
Reply with just the number (in s⁻¹).

**Q:** I am curious: what koff value has been reported for AB200_Fab + D99S (Fab, name in Kabat numbering, V domains shown) VH: QVQLVQSGAEVKKPGSSVKVSCKASGGTFSNYWMHWVRQAPGQGLEWMGATYRGHSDTYYNQKFKGRVTITADKSTSTAYMELSSLRSEDTAVYYCARGAIYSGYDVLDNWGQGTLVTVSS VL: DIQMTQSPSSLSASVGDRVTITCSASQDISNYLNWYQQKPGKAPKLLIYYTSNLHSGVPSRFSGSGSGTDFTLTISSLQPEDFATYYCQQYRKLPWTFGQGTKLEIKR ?
**A:** 0.00114

**Q:** I am curious: what koff value has been reported for AB200_Fab + D99E (Fab, name in Kabat numbering, V domains shown) VH: QVQLVQSGAEVKKPGSSVKVSCKASGGTFSNYWMHWVRQAPGQGLEWMGATYRGHSDTYYNQKFKGRVTITADKSTSTAYMELSSLRSEDTAVYYCARGAIYEGYDVLDNWGQGTLVTVSS VL: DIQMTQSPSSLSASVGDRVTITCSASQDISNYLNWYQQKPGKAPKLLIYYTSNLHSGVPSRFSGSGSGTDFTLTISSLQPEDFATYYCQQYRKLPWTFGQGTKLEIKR ?
**A:** 0.00219

**Q:** I am curious: what koff value has been reported for AB200_Fab (D99D) (Fab, V domains shown) VH: QVQLVQSGAEVKKPGSSVKVSCKASGGTFSNYWMHWVRQAPGQGLEWMGATYRGHSDTYYNQKFKGRVTITADKSTSTAYMELSSLRSEDTAVYYCARGAIYDGYDVLDNWGQGTLVTVSS VL: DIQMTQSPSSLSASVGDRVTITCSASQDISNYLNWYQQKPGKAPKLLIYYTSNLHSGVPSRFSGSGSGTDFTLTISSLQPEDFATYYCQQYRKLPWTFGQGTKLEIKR ?
**A:** 0.00118

**Q:** I am curious: what koff value has been reported for AB200_Fab + D99N (Fab, name in Kabat numbering, V domains shown, also called D99N variant) VH: QVQLVQSGAEVKKPGSSVKVSCKASGGTFSNYWMHWVRQAPGQGLEWMGATYRGHSDTYYNQKFKGRVTITADKSTSTAYMELSSLRSEDTAVYYCARGAIYNGYDVLDNWGQGTLVTVSS VL: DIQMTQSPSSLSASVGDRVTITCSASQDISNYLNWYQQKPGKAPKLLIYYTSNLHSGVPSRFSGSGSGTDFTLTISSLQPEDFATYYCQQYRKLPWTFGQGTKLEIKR ?
**A:** 0.00066
